Measured values drawn from PubChem BioAssay AID588382 for this set.

assay-summary: qHTS of small molecules that selectively kill Giardia lamblia: Hit Validation in HepG2 cytotox
assay-conditions: cell viability; HepG2 cytotoxicity; series mostly up to 38.3 µM
The whole screen tested about 1,300 compounds, of which about 150 (12%) were called active. Another 30% or so got no clear call; they are omitted. Calls come from the whole dose curve; as a rule, active = well fitted cell-killing curve with a large enough effect; inconclusive = small, poorly fitted or top-dose-only effect, or effect the other way; inactive = flat fitted curve, though single readings scatter. Only a selection was taken, and actives are over-represented in it overall.
I would appreciate it if you answered using one of these outcomes: active, inactive

Before answering, review these 2 worked examples.
INSERT INTO assay_data (compound, group_label) VALUES
  ('Cc1ccc(OCC(=O)c2cc(C)n(-c3ccccc3)c2C)c([N+](=O)[O-])n1', 'inactive'),
  ('COCCNC(=O)/C(C#N)=C/c1ccc(O)c([N+](=O)[O-])c1', 'inactive');

Ask: Record request — test call for `O=C(Nc1ccc(S(=O)(=O)N2CCCC2)cc1)c1ccc([N+](=O)[O-])o1`
Result: active

Ask: Record request — test call for COC1C(OC(=O)/C=C/C=C/C=C/C=C/C(=O)O)CCC2(CO2)C1C1(C)OC1CC=C(C)C (stereo not given) (tested in a mixture with another compound)
Result: inactive

Ask: Record request — test call for `O=C(Nc1ccc(N2CCCC2)c(Cl)c1)c1ccc([N+](=O)[O-])o1`
Result: active

* * *

assay-summary: qHTS of small molecules that selectively kill Giardia lamblia: Hit Validation in HepG2 cytotox;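 note: compound exposure lasted overnight at 37 deg C; nearly all actives have a fitted effect of over 55% in size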
assay-conditions: cell viability; HepG2 cytotoxicity; series mostly up to 38.3 µM
Description: Giardia lamblia is a human pathogen afflicting impoverished nations, and the most common cause of outbreaks of diarrhea in the United States. Giardia has been classified by the CDC as a category B bioterrorism organism. […] 4 uL of HepG2 cells ae dispensed into white 1536-well plates. […] 2 uL of ATPLite is added and the plates are incubated for 15 min at room temperature before they are read on the ViewLux for luminiescence.
Out of some 1,300 compounds screened, about 150 (12%) were called active. Inconclusive results (about 30%) are left out. Calls follow the shape of the dose curve; as a rule, active = well fitted cell-killing curve with a large enough effect; inconclusive = small, poorly fitted or top-dose-only effect, or effect the other way; inactive = flat fitted curve, though single readings scatter. This excerpt belongs to a sample that is enriched for actives.
I would appreciate it if you answered using one of these outcomes: active, inactive

Before answering, review these 5 worked examples.
INSERT INTO measurements (molecule, group_label) VALUES
  ('Cc1cc(C)c2sc(NC(=O)c3ccc([N+](=O)[O-])o3)nc2c1', 'inactive'),
  ('COc1cc(/C=C/c2onc(C)c2[N+](=O)[O-])cc(OC)c1OC', 'inactive'),
  ('O=[N+]([O-])c1nn(-c2ccccc2)n(O)c1=NCCc1ccccc1', 'inactive'),
  ('O=[N+]([O-])c1ncc(Br)cc1Nc1ccccc1', 'inactive'),
  ('Clc1ccc2c(N/N=C/c3ccccc3Br)ccnc2c1', 'active');

Ask: Record request — test call for `NC(=O)c1ccc(NC(=O)COc2ccc([N+](=O)[O-])cc2Cl)cc1`
Result: inactive

Ask: Record request — test call for `O=C(Nc1nc2ccccc2s1)c1ccc([N+](=O)[O-])o1`
Result: inactive

Ask: Record request — test call for `O=c1sc(N2CCN(c3ccc(F)cc3)CC2)nc2ccsc12`
Result: inactive

Ask: Record request — test call for CC1(C)Oc2cc3oc(-c4cc(O)cc(O)c4)cc3cc2CC1O (configuration not stated)
Result: active

Ask: Record request — test call for Cc1cccc(N2CCN(C(=S)Nc3ccc4nc(N5CCN(C)CC5)cc(C)c4c3)CC2C)c1 (configuration not stated)
Result: active

Ask: Record request — test call for `Clc1ccc2c(N/N=C/c3cccc(Br)c3)ccnc2c1`
Result: active

Ask: Record request — test call for `Cc1ccc(CN=c2c([N+](=O)[O-])nn(-c3cccc(Cl)c3)n2O)cc1`
Result: inactive

Ask: Record request — test call for `COc1ccc(-c2nc(NCCCN(C)C)c3ccccc3n2)cc1`
Result: inactive

Ask: Record request — test call for `Cc1ccc([C@H]2C(C(=O)O)=CC[C@@H](c3cccc(Cl)c3)N2S(=O)(=O)c2ccc(C)cc2)cc1`
Result: inactive

Ask: Record request — test call for `Cc1oc2cc(O)ccc2c(=O)c1Oc1ccccc1Br`
Result: inactive

Ask: Record request — test call for COc1cc(C2CC(=O)Oc3cc(C)c(Cl)c(C)c32)cc(OC)c1OC (configuration not stated)
Result: inactive

Ask: Record request — test call for `COc1cc2c(cc1OC)-c1c(OC)c(OC)cc3ccnc(c13)C2=O`
Result: inactive

Ask: Record request — test call for `CCc1ccc([C@@H]2CC=C(C(=O)O)[C@H](c3cccc(Cl)c3)N2S(=O)(=O)c2ccc(C)cc2)cc1`
Result: inactive

Ask: Record request — test call for `N/C(=N\OC(=O)c1ccc(Cl)cc1[N+](=O)[O-])c1ccccn1`
Result: inactive

Ask: Record request — test call for `Cc1[nH]n(S(=O)(=O)Cc2ccccc2)c(=O)c1N=Nc1ccccc1Cl`
Result: inactive

Ask: Record request — test call for `CC/C=C1/N=C2C(=O)N(C)C(=O)N=C2N(C)N1`
Result: active

Ask: Record request — test call for `Cc1cc2[nH]c3c(c[n+](C)c4ccccc34)c2cc1C`
Result: active

* * *

assay-summary: qHTS of small molecules that selectively kill Giardia lamblia: Hit Validation in HepG2 cytotox;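 note: compound exposure lasted overnight at 37 deg C; nearly all actives have a fitted effect of over 55% in size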
assay-conditions: cell viability; HepG2 cytotoxicity; series mostly up to 38.3 µM
The whole screen tested about 1,300 compounds, of which about 150 (12%) were called active. Inconclusive results (about 30%) are left out. Calls come from the whole dose curve; as a rule, active = well fitted cell-killing curve with a large enough effect; inconclusive = small, poorly fitted or top-dose-only effect, or effect the other way; inactive = flat fitted curve, though single readings scatter. The sample as a whole holds a higher share of actives than the screen did.
I would appreciate it if you answered using one of these outcomes: active, inactive

INSERT INTO results (compound, group_label) VALUES
  ('CCCc1ccc(-c2cc(C(=O)N/N=C/c3ccc([N+](=O)[O-])o3)c3ccccc3n2)cc1', 'active'),
  ('COc1ccc(CNC(=O)COc2cccnc2[N+](=O)[O-])cc1OC', 'inactive'),
  ('CCOC(=O)N1C(C)CN(/[N+]([O-])=N/Oc2ccc([N+](=O)[O-])cc2[N+](=O)[O-])CC1C (stereo not given)', 'inactive'),
  ('COc1ccc(C(=S)NC2CCCCC2)cc1', 'inactive'),
  ('Cc1cnc([N+](=O)[O-])n1CCOC(=O)NC(=O)c1ccccc1', 'inactive');

Ask: Record request — test call for COc1ccccc1C1OC2=C(Nc3ccc([N+](=O)[O-])cc3N2)C1=O (stereo not given)
Result: inactive

Ask: Record request — test call for `O=C1/C(=C/c2ccncc2)CCC/C1=C\c1ccncc1`
Result: active

* * *

assay-summary: qHTS of small molecules that selectively kill Giardia lamblia: Hit Validation in HepG2 cytotox;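 note: compound exposure lasted overnight at 37 deg C; nearly all actives have a fitted effect of over 55% in size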
assay-conditions: cell viability; HepG2 cytotoxicity; series mostly up to 38.3 µM
Screen size: about 1,300 compounds; about 150 (12%) were called active. Not shown: some 30% with an inconclusive outcome. The call rests on the fitted dose curve; in most records, active means well fitted cell-killing curve with a large enough effect; inconclusive means small, poorly fitted or top-dose-only effect, or effect the other way; inactive means flat fitted curve, though single readings scatter. The full list was thinned out, with actives kept by preference.
I would appreciate it if you answered using one of these outcomes: active, inactive

Before answering, review these 5 worked examples.
INSERT INTO assay_data (molecule, group_label) VALUES
  ('CCN(c1ccccc1)S(=O)(=O)c1cccc(C(=O)OCc2nc3sc(C)c(C)c3c(=O)[nH]2)c1', 'inactive'),
  ('CCOC(=O)c1cc([N+](=O)[O-])sc1NC(=O)CC', 'inactive'),
  ('CC(NC(=O)COc1cccnc1[N+](=O)[O-])c1ccc(Cl)cc1Cl (stereo unspecified)', 'inactive'),
  ('Cc1ccc(S(=O)(=O)N2[C@@H](c3ccc(Cl)cc3)C(C(=O)O)=CC[C@H]2c2cccc(Cl)c2)cc1', 'inactive'),
  ('C[C@H]1CN=C(N(C)C)N1CCC1CCCC1', 'inactive');

Ask: Record request — test call for `CC(=O)c1c(COC(=O)c2ccccc2Cl)nc2ccccc2[n+]1[O-]`
Result: inactive

* * *

assay-summary: qHTS of small molecules that selectively kill Giardia lamblia: Hit Validation in HepG2 cytotox;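 note: compound exposure lasted overnight at 37 deg C; nearly all actives have a fitted effect of over 55% in size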
assay-conditions: cell viability; HepG2 cytotoxicity; series mostly up to 38.3 µM
The whole screen tested about 1,300 compounds, of which about 150 (12%) were called active. About 30% were inconclusive and are not listed. The call rests on the fitted dose curve; in most records, active means well fitted cell-killing curve with a large enough effect; inconclusive means small, poorly fitted or top-dose-only effect, or effect the other way; inactive means flat fitted curve, though single readings scatter. The sample holds actives, similar compounds and a random draw of the others, so the mix is not that of the screen.
I would appreciate it if you answered using one of these outcomes: active, inactive

INSERT INTO assay_data (compound, group_label) VALUES
  ('CC(=O)c1c(C)n([O-])c2ccc(C)cc2[n+]1=O', 'inactive'),
  ('COc1ccccc1C(=O)NC(=O)OCCn1c(C)cnc1[N+](=O)[O-]', 'inactive'),
  ('Cc1cccc(NC(=O)CN2C(=O)S/C(=C\c3ccc(O)c([N+](=O)[O-])c3)C2=O)c1', 'inactive'),
  ('Cc1ccc(OCC(=O)Nc2cc(S(=O)(=O)N3CCOCC3)ccc2Cl)c([N+](=O)[O-])n1', 'inactive'),
  ('Cc1ccccc1N1CCN(Cc2ccc([N+](=O)[O-])o2)CC1', 'inactive');

Ask: Record request — test call for `COc1ccc(NC(=O)c2ccc([N+](=O)[O-])cc2[N+](=O)[O-])c(OC)c1`
Result: inactive

Ask: Record request — test call for `Cc1cnc([N+](=O)[O-])n1CCOC(=O)NC(=O)c1ccccc1Cl`
Result: inactive

Ask: Record request — test call for `COCCn1c(C)cc(C(=O)COc2ccc(C)nc2[N+](=O)[O-])c1C`
Result: inactive
